measurementTarget: General amino-acid permease GAP1 (Saccharomyces cerevisiae)
methodNotes: Competitive inhibition of nitrogen-starved wild type sigma1278b yeast Gap1 by Lineweaver-Burke plot analysis
Residues, ends and D or L forms follow the SMILES beside them.
outcomeMeasure: Ki (µM)
Your answer is read as µM, so omit the unit and give the number.

- CC(C)C[C@H](N)C(=O)NCC(=O)O (H-Leu-Gly-OH): 190

May I ask what Ki has been recorded for N[C@@H](CC(=O)N[C@@H](CCC(=O)O)c1ccccc1)C(=O)O ? 105

* * *

measurementTarget: General amino-acid permease GAP1 (Saccharomyces cerevisiae) (UniProt P19145)
Sequence (whole entry): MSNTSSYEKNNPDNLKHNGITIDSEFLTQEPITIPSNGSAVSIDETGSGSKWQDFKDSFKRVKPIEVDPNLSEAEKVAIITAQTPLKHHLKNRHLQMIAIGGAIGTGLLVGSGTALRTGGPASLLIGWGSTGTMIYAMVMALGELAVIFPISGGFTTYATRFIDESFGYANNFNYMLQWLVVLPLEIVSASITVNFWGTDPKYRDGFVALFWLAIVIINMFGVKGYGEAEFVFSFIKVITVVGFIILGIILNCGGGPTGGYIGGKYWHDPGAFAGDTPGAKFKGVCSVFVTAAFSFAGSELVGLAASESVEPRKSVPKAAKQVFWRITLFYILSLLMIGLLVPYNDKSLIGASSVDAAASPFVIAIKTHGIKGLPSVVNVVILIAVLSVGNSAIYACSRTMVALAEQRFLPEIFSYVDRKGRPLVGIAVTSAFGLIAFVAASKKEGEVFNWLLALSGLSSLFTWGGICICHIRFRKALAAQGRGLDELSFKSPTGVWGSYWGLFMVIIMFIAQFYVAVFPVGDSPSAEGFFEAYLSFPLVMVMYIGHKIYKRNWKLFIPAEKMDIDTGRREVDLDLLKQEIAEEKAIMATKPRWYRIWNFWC
conditionDetails: sigma1278b, at 5 mM
Description: Inhibition of nitrogen-starved wild type sigma1278b yeast Gap1-mediated amino acid uptake at 5 mM after 60 secs relative to L-citrulline
Residues, ends and D or L forms follow the SMILES beside them.
Attribute: inhibition

- C[C@H](N)C(=O)NCC(=O)O: > 30%

May I ask what inhibition has been recorded for COC(=O)[C@H](Cc1ccccc1)NC(=O)C[C@H](N)C(=O)O ? > 30%

May I ask what inhibition has been recorded for CC(C)C(NC(=O)CN)C(=O)O (racemic) ? < 15%

May I ask what inhibition has been recorded for CC(C)C[C@H](NC(=O)[C@@H](N)[C@@H](C)O)C(=O)O (H-Thr-Leu-OH) ? < 15%

May I ask what inhibition has been recorded for COC(=O)[C@@H](N)Cc1ccc(O)cc1 ? < 15%

May I ask what inhibition has been recorded for COC(=O)[C@@H]1C=CCN1 ? < 15%

May I ask what inhibition has been recorded for NCC(=O)N[C@@H](CC(=O)O)C(=O)O (H-Gly-Asp-OH) ? < 15%

May I ask what inhibition has been recorded for N[C@@H](Cc1ccc(O)cc1)C(=O)NCC(=O)NCC(=O)O (H-Tyr-Gly-Gly-OH) ? < 15%

* * *

measurementTarget: General amino-acid permease GAP1 (Saccharomyces cerevisiae) (UniProt P19145)
methodNotes: Induction of nitrogen-starved wild type sigma1278b yeast Gap1-mediated […] activation at 10 mM
Active and inactive are the calls of the source. The rule behind the calls is not given here. Residues, ends and D or L forms follow the SMILES beside them.
outcomeMeasure: Activity

• N=C(N)NCCC[C@H](N)C(=O)N[C@@H](Cc1ccccc1)C(=O)N[C@@H](Cc1ccccc1)C(=O)O (H-Arg-Phe-Phe-OH) = Active
• N[C@@H](CCC(=O)O)C(=O)O = Active
• N[C@@H](Cc1ccccc1)C(=O)O = Active
• N[C@@H](Cc1c[nH]cn1)C(=O)O = inactive
• CSCC[C@H](NC(=O)[C@@H](N)CC(C)C)C(N)=O (H-Leu-Met-NH2) = inactive
• NCCCC[C@H](N)C(=O)O = inactive

May I ask what Activity has been recorded for N[C@@H](CO)C(=O)O ? Active

May I ask what Activity has been recorded for N[C@@H](Cc1c[nH]c2ccccc12)C(=O)O ? inactive

May I ask what Activity has been recorded for C[C@@H](O)[C@H](N)C(=O)O ? Active

May I ask what Activity has been recorded for N[C@@H](CC(=O)O)C(=O)O ? Active

May I ask what Activity has been recorded for O=C(O)[C@@H]1CCCN1 ? Active

* * *

measurementTarget: General amino-acid permease GAP1 (Saccharomyces cerevisiae) (UniProt P19145)
Sequence (whole entry): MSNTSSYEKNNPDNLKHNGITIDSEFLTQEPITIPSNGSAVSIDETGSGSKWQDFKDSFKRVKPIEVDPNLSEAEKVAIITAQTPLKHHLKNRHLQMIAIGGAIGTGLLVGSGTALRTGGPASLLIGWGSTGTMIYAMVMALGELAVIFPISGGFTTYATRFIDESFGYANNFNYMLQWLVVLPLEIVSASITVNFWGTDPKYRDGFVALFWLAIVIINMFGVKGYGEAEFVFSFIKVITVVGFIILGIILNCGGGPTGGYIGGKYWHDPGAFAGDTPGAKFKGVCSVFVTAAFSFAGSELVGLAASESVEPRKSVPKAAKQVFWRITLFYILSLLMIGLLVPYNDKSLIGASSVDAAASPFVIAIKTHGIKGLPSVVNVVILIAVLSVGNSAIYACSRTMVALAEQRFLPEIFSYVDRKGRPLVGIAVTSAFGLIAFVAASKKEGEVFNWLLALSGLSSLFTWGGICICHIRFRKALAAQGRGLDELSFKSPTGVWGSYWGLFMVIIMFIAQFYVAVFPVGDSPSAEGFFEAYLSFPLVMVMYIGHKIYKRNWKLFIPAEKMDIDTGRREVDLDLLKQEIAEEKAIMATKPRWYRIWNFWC
conditionDetails: sigma1278b, at 5 mM
Non-standard residues stand in square brackets, D forms with d. Residues, ends and D or L forms follow the SMILES beside them. pGlu = O=C1CC[C@@H](C(=O)O)N1; βAla = NCCC(=O)O
outcomeMeasure: inhibition

Worked set:
• CSCC[C@H](N)C(=O)NCC(=O)O (H-Met-Gly-OH) = < 15%
• NCC(=O)NCC(=O)NCCC(=O)O (H-Gly-Gly-[βAla]-OH) = < 15%
• CC(C)C[C@H](NC(=O)CN)C(=O)O (racemic) = 15%
• CC[C@H](C)[C@H](N)C(=O)N[C@@H](CC(C)C)C(=O)N[C@@H](CC(C)C)C(=O)O (H-Ile-Leu-Leu-OH) = > 30%
• CCC[C@@H](NC(=O)[C@@H](N)CCC(=O)O)C(=O)O = < 15%
• C[C@H](NC(=O)[C@@H](N)[C@@H](C)O)C(=O)O (H-Thr-Ala-OH) = < 15%
• COC(=O)CC[C@H](NC(=O)OC(C)(C)C)C(=O)O = < 15%
• O=C(O)CNC(=O)[C@H](Cc1cnc[nH]1)NC(=O)[C@@H]1CCC(=O)N1 ([pGlu]-His-Gly-OH) = < 15%

May I ask what inhibition has been recorded for N[C@@H](Cc1cnc[nH]1)C(=O)NCC(=O)NCC(=O)O (H-His-Gly-Gly-OH) ? < 15%

May I ask what inhibition has been recorded for CSCC[C@H](NC(=O)[C@H](CC(C)C)NC(=O)CN)C(=O)O (H-Gly-Leu-Met-OH) ? < 15%

* * *

measurementTarget: General amino-acid permease GAP1 (Saccharomyces cerevisiae) (UniProt P19145)
methodNotes: Noncompetitive inhibition of nitrogen-starved wild type sigma1278b yeast Gap1-mediated amino acid uptake at 5 mM after 60 secs relative to L-citrulline
Residues, ends and D or L forms follow the SMILES beside them.
Attribute: inhibition
Your answer is read as %, so omit the unit and give the number.

May I ask what inhibition has been recorded for CSCC[C@H](NC(=O)[C@@H](N)CC(C)C)C(=O)O (H-Leu-Met-OH) ? 15

May I ask what inhibition has been recorded for CC(C)C[C@H](NC(=O)[C@H](CC(C)C)NC(=O)[C@@H](N)CC(C)C)C(=O)O (H-Leu-Leu-Leu-OH) ? 15

May I ask what inhibition has been recorded for CC(C)C[C@H](NC(=O)[C@@H](N)CC(C)C)C(=O)N[C@@H](C)C(=O)O (H-Leu-Leu-Ala-OH) ? 15

* * *

Attribute: inhibition
measurementTarget: General amino-acid permease GAP1 (Saccharomyces cerevisiae) (UniProt P19145)
conditionDetails: sigma1278b, at 5 mM
Residues, ends and D or L forms follow the SMILES beside them.
Your answer is read as %, so omit the unit and give the number.

• CC(C)[C@H](N)C(=O)N[C@H](C(=O)O)C(C)C (H-Val-Val-OH) = 15

Now for another entry.
May I ask what inhibition has been recorded for CC(C)C[C@H](NC(=O)[C@@H](N)CC(C)C)C(=O)N[C@@H](CCC(=O)O)C(=O)O (H-Leu-Leu-Glu-OH) ? 15
